- experimental-target: recombinant catalytic domain of MMP-8 (Homo sapiens, UniProt P22894)
- Construct: instead of the whole enzyme only its enzymatically active catalytic domain was cloned into E. coli; made in house; host or cells: E. coli
- Sequence (P22894 100-262 limits assumed): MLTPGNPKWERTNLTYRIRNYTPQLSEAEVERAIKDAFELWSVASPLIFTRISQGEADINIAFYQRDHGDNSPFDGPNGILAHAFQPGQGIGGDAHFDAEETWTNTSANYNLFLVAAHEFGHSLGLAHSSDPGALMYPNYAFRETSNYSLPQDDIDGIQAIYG
- assay-comment: Quantitative fluorescence assay, inhibition of catalytic domain of MMP-8
- Assay type: biochemical
- condition-parameters: 10 μM inhibitor; no explicit Ki value since the dixon plot is non-linear
property-measured: MMP-8 inhibition with 10 μM

Some solved cases for reference:
{"molecule": "O=c1c2ccccc2nc2n1C[C@H](CS)S2 (racemic)", "experimental-target": "recombinant catalytic domain of MMP-8 (Homo sapiens, UniProt P22894)", "MMP-8 inhibition with 10 μM": "80%"}
{"molecule": "O=c1c2ccc(Cl)cc2nc2n1C[C@H](CS)S2 (racemic)", "experimental-target": "recombinant catalytic domain of MMP-8 (Homo sapiens, UniProt P22894)", "MMP-8 inhibition with 10 μM": "90%"}
{"molecule": "O=c1c2ccccc2nc2n1[C@H](CS)CS2 (racemic)", "experimental-target": "recombinant catalytic domain of MMP-8 (Homo sapiens, UniProt P22894)", "MMP-8 inhibition with 10 μM": "25%"}

Now look at this one.
Task item: Any idea what MMP-8 inhibition with 10 μM was measured for C[C@]1(CS)Cn2c(nc3ccccc3c2=O)S1 (racemic) ?
Reply: 85%

====

- experimental-target: MMP-9 (Homo sapiens)
- Sequence (P14780 107-707 limits assumed): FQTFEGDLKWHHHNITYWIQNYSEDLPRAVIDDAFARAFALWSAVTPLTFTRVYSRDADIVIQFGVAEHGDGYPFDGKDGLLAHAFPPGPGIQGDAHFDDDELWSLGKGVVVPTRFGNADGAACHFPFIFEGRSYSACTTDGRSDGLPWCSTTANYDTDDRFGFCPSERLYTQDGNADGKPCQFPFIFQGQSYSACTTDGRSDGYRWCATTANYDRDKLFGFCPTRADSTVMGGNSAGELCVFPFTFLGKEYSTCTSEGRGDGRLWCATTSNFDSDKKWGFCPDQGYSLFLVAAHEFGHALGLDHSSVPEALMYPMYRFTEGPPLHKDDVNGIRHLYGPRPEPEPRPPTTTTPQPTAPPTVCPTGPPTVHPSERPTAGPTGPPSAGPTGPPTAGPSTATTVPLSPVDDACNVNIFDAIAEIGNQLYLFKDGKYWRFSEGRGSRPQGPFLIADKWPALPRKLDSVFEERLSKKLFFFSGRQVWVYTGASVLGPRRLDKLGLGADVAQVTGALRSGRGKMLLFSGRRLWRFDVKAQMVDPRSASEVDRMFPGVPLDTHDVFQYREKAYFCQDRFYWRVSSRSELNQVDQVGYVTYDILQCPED
- assay-comment: Quantitative fluorescence assay, inhibition of MMP-9
- condition-parameters: DIXON method
property-measured: pKi
Give only the number. pKi is defined as minus log10 of concentration in molar units.

{"compound": "C[C@]1(CS)Cn2c(nc3ccccc3c2=O)S1 (racemic)", "experimental-target": "MMP-9 (Homo sapiens)", "obs-value": 6.00}

Task item: Any idea what pKi was measured for O=C(O)c1ccc2c(=O)n3c(nc2c1)S[C@@H](CS)C3 (racemic) ?
Reply: 4.82

====

- experimental-target: recombinant catalytic domain of MMP-8 (Homo sapiens, UniProt P22894)
- Construct: instead of the whole enzyme only its enzymatically active catalytic domain was cloned into E. coli
- assay-comment: Quantitative fluorescence assay, inhibition of catalytic domain of MMP-8
- condition-parameters: DIXON method
property-measured: pKi
Give only the number. pKi is defined as minus log10 of concentration in molar units.

Task item: # get_value(readout= pKi, system= recombinant catalytic domain of MMP-8 (Homo sapiens, UniProt P22894)) for O=C(O)c1ccc2c(=O)n3c(nc2c1)S[C@@H](CS)C3 (racemic)
Reply: 4.62

====

Catalogue of compounds with associated pKi
- experimental-target: MT1-MMP (recombinant catalytic domain of MMP-14) (Homo sapiens)
- Construct: recombinant catalytic domain of MMP-14
- assay-comment: Quantitative fluorescence assay, inhibition of MT1-MMP
- condition-parameters: DIXON method
Give only the number. pKi is defined as minus log10 of concentration in molar units.

Some solved cases for reference:
{"compound": "O=C(O)c1ccc2c(=O)n3c(nc2c1)S[C@@H](CS)C3 (racemic) [Example 3]", "experimental-target": "MT1-MMP (recombinant catalytic domain of MMP-14) (Homo sapiens)", "pKi": 4.68}
{"compound": "C[C@]1(CS)Cn2c(nc3ccccc3c2=O)S1 (racemic) [Example 2]", "experimental-target": "MT1-MMP (recombinant catalytic domain of MMP-14) (Homo sapiens)", "pKi": 5.40}

Now look at this one.
Task item: # get_value(readout= pKi, system= MT1-MMP (recombinant catalytic domain of MMP-14) (Homo sapiens)) for O=c1c2ccccc2nc2n1[C@H](CS)CS2 (racemic) [Example 4]
Reply: 4.26

====

- experimental-target: MMP-2 (gelatinase) (Homo sapiens, UniProt P08253)
- Construct: endogenous in cells; host or cells: human dermal fibroblasts (secreted into culture medium)
- Sequence (P08253 110-660): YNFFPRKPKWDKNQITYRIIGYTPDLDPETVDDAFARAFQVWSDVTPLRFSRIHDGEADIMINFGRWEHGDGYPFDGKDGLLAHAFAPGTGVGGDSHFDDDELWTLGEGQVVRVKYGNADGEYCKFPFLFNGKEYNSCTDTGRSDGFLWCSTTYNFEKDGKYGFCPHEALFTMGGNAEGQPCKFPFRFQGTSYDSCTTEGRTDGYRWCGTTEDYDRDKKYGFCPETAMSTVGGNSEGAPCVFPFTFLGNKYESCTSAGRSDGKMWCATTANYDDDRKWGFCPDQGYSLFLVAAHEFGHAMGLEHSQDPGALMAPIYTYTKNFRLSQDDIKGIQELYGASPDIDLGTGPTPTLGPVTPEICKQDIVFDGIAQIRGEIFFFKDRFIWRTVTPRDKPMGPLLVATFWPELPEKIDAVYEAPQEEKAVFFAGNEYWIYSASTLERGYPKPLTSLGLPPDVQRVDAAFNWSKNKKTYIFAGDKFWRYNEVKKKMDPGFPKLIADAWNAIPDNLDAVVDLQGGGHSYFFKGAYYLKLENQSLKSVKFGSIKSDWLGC
- assay-comment: Quantitative fluorescence assay, inhibition of MMP-2
- Assay type: biochemical
- condition-parameters: 10 μM inhibitor; no explicit Ki value since the dixon plot is non-linear
Catalogue of compounds with associated MMP-2 inhibition with 10 μM
State the value, then name its unit.

Some solved cases for reference:
{"compound": "O=c1c2ccccc2nc2n1C[C@H](CS)S2 (racemic)", "MMP-2 inhibition with 10 μM": "70%"}
{"compound": "O=C(O)c1ccc2c(=O)n3c(nc2c1)S[C@@H](CS)C3 (racemic)", "MMP-2 inhibition with 10 μM": "25%"}
{"compound": "O=c1c2ccccc2nc2n1[C@H](CS)CS2 (racemic)", "MMP-2 inhibition with 10 μM": "50%"}
{"compound": "O=c1c2ccc(Cl)cc2nc2n1C[C@H](CS)S2 (racemic)", "MMP-2 inhibition with 10 μM": "80%"}

Task item: Any idea what MMP-2 inhibition with 10 μM was measured for C[C@]1(CS)Cn2c(nc3ccccc3c2=O)S1 (racemic) ?
Reply: 50%
